Recorded values, source PubChem BioAssay AID1211.

# inhibition of ligand binding per entry
# experimental.system: Estrogen receptor (Homo sapiens) (UniProt P03372)
# Sequence (P03372 whole entry, looked up): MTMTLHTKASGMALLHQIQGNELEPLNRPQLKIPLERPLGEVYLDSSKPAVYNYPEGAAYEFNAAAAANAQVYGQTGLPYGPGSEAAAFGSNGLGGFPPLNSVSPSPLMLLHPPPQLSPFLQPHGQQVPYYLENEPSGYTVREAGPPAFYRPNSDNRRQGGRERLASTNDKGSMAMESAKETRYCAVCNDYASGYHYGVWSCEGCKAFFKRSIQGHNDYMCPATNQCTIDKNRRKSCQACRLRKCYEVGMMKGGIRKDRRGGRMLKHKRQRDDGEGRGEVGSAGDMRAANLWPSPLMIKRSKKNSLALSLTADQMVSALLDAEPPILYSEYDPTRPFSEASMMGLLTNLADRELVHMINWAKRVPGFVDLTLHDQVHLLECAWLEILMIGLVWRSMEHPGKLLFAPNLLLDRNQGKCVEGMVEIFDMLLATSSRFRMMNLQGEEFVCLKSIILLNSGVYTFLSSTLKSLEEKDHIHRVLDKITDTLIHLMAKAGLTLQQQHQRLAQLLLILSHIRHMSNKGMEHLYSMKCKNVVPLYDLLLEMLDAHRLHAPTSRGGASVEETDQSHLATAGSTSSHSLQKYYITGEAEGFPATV
# measurement.description: displacement of fluorescent estrogen from ERalpha – cell-based, Cos7 ERalpha-GFP, flow cytometry, primary screen (AID 1211);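 note: 0% = DMSO vehicle wells and 100% = no E2-Alexa633 signal left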
# study.conditions: fluorescent ligand competition, binding inhibition, at 0.1 µM, stronger effect = higher value
measured.endpoint: inhibition of ligand binding (%)

[[record]]
molecule = "O=C(O)c1cccc2c1NC(C(=O)O)C1CC(Sc3ccccc3[N+](=O)[O-])C(Cl)C21 (stereo not given)"
experimental_system = "Estrogen receptor (Homo sapiens) (UniProt P03372)"
value_observed = 1

[[record]]
molecule = "C[C@H]1CCC[C@@H](O)CCC/C=C/c2cc(O)cc(O)c2C(=O)O1"
experimental_system = "Estrogen receptor (Homo sapiens) (UniProt P03372)"
value_observed = 74

[[record]]
molecule = "CCOc1ccccc1N1C(=O)NC(=O)C(CCc2ccncc2)(CCc2ccncc2)C1=O"
experimental_system = "Estrogen receptor (Homo sapiens) (UniProt P03372)"
value_observed = 24

[[record]]
molecule = "NC(=O)c1ccc(N=Nc2c(O)[nH]c(=O)[nH]c2=O)cc1"
experimental_system = "Estrogen receptor (Homo sapiens) (UniProt P03372)"
value_observed = 14

[[record]]
molecule = "CC(=O)c1ccc2c(c1)C1C(Cl)C(Sc3ccccc3[N+](=O)[O-])CC1C(c1ccccc1[N+](=O)[O-])N2 (stereo not given)"
experimental_system = "Estrogen receptor (Homo sapiens) (UniProt P03372)"
value_observed = 38


* * *

# experimental.system: Estrogen receptor (Homo sapiens)
# measurement.description: displacement of fluorescent estrogen from ERalpha – cell-based, Cos7 ERalpha-GFP, flow cytometry, primary screen (AID 1211);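 note: 0% = DMSO vehicle wells and 100% = no E2-Alexa633 signal left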
# study.conditions: fluorescent ligand competition, at 10 µM, stronger effect = higher value
Calls of active or inactive are those of the source. No rule for the calls is given here.
measured.endpoint: inhibition of ligand binding

[[record]]
compound = "C[C@H]1CCC[C@@H](O)CCC/C=C/c2cc(O)cc(O)c2C(=O)O1"
experimental_system = "Estrogen receptor (Homo sapiens)"
value_observed = "67% (active)"

[[record]]
compound = "CCOc1ccccc1N1C(=O)NC(=O)C(CCc2ccncc2)(CCc2ccncc2)C1=O"
experimental_system = "Estrogen receptor (Homo sapiens)"
value_observed = "59% (inactive)"

[[record]]
compound = "COc1ccc(Cn2c(N)c(C(=O)NCc3ccco3)c3nc4ccccc4nc32)cc1"
experimental_system = "Estrogen receptor (Homo sapiens)"
value_observed = "26% (inactive)"

[[record]]
compound = "O=C(O)c1cccc2c1NC(c1cccc([N+](=O)[O-])c1)C1CC(Sc3ccccc3[N+](=O)[O-])C(Cl)C21 (stereo unspecified)"
experimental_system = "Estrogen receptor (Homo sapiens)"
value_observed = "62% (inactive)"

[[record]]
compound = "CC(=O)c1ccc2c(c1)C1C(Cl)C(Sc3ccccc3[N+](=O)[O-])CC1C(c1ccccc1[N+](=O)[O-])N2 (stereo unspecified)"
experimental_system = "Estrogen receptor (Homo sapiens)"
value_observed = "79% (active)"

[[record]]
compound = "NC(=O)c1ccc(N=Nc2c(O)[nH]c(=O)[nH]c2=O)cc1"
experimental_system = "Estrogen receptor (Homo sapiens)"
value_observed = "28% (inactive)"

